# credit: patent US20250333467A1

Let's look at some binders and their measured Transient HEK293 hRXFP1 cAMP EC50.
Molecular target: T1, human RXFP1 (human, UniProt Q9HBX9 1-757)
T1 sequence (looked up): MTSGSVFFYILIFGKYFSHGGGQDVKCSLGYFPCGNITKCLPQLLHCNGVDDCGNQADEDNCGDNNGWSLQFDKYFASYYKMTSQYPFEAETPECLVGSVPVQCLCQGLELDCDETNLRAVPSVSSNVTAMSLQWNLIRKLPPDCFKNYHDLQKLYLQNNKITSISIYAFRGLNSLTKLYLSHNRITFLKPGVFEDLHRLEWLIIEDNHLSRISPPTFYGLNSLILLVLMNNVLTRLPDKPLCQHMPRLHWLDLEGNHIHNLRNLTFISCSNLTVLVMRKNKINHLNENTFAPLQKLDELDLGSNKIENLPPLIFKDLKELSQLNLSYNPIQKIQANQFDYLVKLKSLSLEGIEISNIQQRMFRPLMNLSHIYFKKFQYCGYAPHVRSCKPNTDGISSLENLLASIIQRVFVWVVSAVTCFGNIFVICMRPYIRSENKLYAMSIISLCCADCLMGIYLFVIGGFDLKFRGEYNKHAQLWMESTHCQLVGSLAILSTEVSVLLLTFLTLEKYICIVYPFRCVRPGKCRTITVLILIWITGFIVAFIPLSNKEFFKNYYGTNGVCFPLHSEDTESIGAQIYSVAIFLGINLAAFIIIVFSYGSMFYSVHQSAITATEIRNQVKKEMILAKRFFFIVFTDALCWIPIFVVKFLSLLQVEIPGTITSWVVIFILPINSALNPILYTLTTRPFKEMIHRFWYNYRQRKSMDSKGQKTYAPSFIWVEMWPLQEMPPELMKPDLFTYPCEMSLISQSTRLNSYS
Assay: cell-based or functional assay
Numeric only. Scale: nM

Look over these answered cases.
1) SEQ ID NO: 317 (Fc fusion) DKTHTCPPCPAPEAAGGPSVFLFPPKPKDTLMISRTPEVTCVVVDVSHEDPEVKFNWYVDGVEVHNAKTKPREEQYNSTYRVVSVLTVLHQDWLNGKEYKCKVSNKALAAPIEKTISKAKGQPREPQVYTLPPSRDELTKNQVSLTCLVKGFYPSDIAVEWESNGQPENNYKTTPPVLDSDGSFFLYSKLTVDKSRWQQGNVFSCSVLHEALHSHYTQKSLSLSPGGGSDSWQEEVIKLCGRELVRAQIAICGKSTGGGEGGGEGGGEGRQLYSALANKCCHVGCTKRSLAQFC | 38.2
2) SEQ ID NO: 98 (Fc fusion) DKTHTCPPCPAPEAAGGPSVFLFPPKPKDTLMISRTPEVTCVVVDVSHEDPEVKFNWYVDGVEVHNAKTKPREEQYNSTYRVVSVLTVLHQDWLNGKEYKCKVSNKALAAPIEKTISKAKGQPREPQVYTLPPSRDELTKNQVSLTCLVKGFYPSDIAVEWESNGQPENNYKTTPPVLDSDGSFFLYSKLTVDKSRWQQGNVFSCSVLHEALHSHYTQKSLSLSPGEGGSDSWQEEVIKLCGRELVRAQIAICGQSTASDAAGADANAGARQLYSALANKCCHVGCTKRSLAQFC | 21.5

So what's the measured Transient HEK293 hRXFP1 cAMP EC50 for this one? SEQ ID NO: 91 (Fc fusion) DKTHTCPPCPAPEAAGGPSVFLFPPKPKDTLMISRTPEVTCVVVDVSHEDPEVKFNWYVDGVEVHNAKTKPREEQYNSTYRVVSVLTVLHQDWLNGKEYKCKVSNKALAAPIEKTISKAKGQPREPQVYTLPPSRDELTKNQVSLTCLVKGFYPSDIAVEWESNGQPENNYKTTPPVLDSDGSFFLYSKLTVDKSRWQQGNVFSCSVLHEALHSHYTQKSLSLSPGEGGSDSWQEEVIKLCGRELVRAQIAICGKSTASDAAGADANAGARQLYSALANKCCHVGCTKRSLAQFC 10.2
